# inhibition zone (IZ) values compiled below
- System: Staphylococcus aureus
- ASSAY COMMENT: Antibacterial activity against Staphylococcus aureus at 500 ug/0.1 mL after 24 hr by agar diffusion method
- Format: functional
PARAMETER: inhibition zone (IZ) (mm)

[[record]]
smiles_code = "Cc1cc(O)nc2cc(N)ccc12"
parameter = "inhibition zone (IZ)"
units_of_measure = "mm"
reported_value = 11

[[record]]
smiles_code = "CC(=O)Nc1ccc2c(C)cc(=O)[nH]c2c1"
parameter = "inhibition zone (IZ)"
units_of_measure = "mm"
reported_value = 11

[[record]]
smiles_code = "COc1ccc(C(=O)Nc2ccc3c(C)cc(=O)[nH]c3c2)cc1OC"
parameter = "inhibition zone (IZ)"
units_of_measure = "mm"
reported_value = 16

[[record]]
smiles_code = "Cc1cc(=O)[nH]c2cc(NC(=O)c3ccc(F)cc3)ccc12"
parameter = "inhibition zone (IZ)"
units_of_measure = "mm"
reported_value = 11

[[record]]
smiles_code = "Cc1ccccc1C(=O)Nc1ccc2c(C)cc(=O)[nH]c2c1"
parameter = "inhibition zone (IZ)"
units_of_measure = "mm"
reported_value = 10

[[record]]
smiles_code = "Cc1cc(=O)[nH]c2cc(NC(=O)c3c(Br)cccc3Br)ccc12"
parameter = "inhibition zone (IZ)"
units_of_measure = "mm"
reported_value = 12

